Tested on: MS2 coat protein
Assay Method Text: apparent Kd, MS2 coat protein; higher = weaker binding; RNA-MaP array; FMN 200 µM where present
Cond: designed as: OFF switch for flavin mononucleotide; no ligand
# maps each entry to its apparent Kd
Express the result in nM but write the number alone.

These recorded examples may help you get a feel for the data.
GCACUUAGAGUUGAACCGUUACUAACAUGAGGAUCACCCAUGUAGGAUAUGCUAAUAGUAUUGAAGCAGAAGGACACUAAGUGC    5.46
UGGGUAAGUGUAGGAUAUUUAUAUUAAUAGUAUGGAGAAGGACAUGAGGAUCACCCAUGUACAGGGAGUUACCCAUUUCCUCUC    778
AGCAUGGUAGGAUAUACGGAACAUUAGGGUUUGUUGUGUGGACAUGAGGAUCACCCAUGUAGAAGGGCCGUGCA    34
CAUUGGUAAGGAUAUGAAUCGAUCUCAGAAAUGAGAUCGAUUCAGAAGGUACAUGAGGAUCACCCAUGUUGAUG    27.8
CGUCCUUAGUGAGGAUAUCAGAAAAUACGGAAAUGAGAAGGCACAUGAGGAUCACCCAUGUAAAUAACGGCCGGCCUUGGCAGC    6.26

q: Which apparent Kd value belongs to AACGCUAGACUAGGAUAUCGUUUACAUGAGGAUCACCCAUGUAAAGGGUAUUGUCGUCAUACGAACGAGAAGGAGUCGGUAAAU ?
a: 10.4

q: Another: AAUAAGCUAGGAUAUACAUGAGGAUCACCCAUGUGAGGGCACGGCCGGCGCGGGCCCGGUAGAAGGAGUCAUAA
a: 28.6

q: Another: GAGAAGUCAGGAUAUCCAUGGCGGCACUUGCGUGGUGGCGUGGAGAAGGGACAUGAGGAUCACCCAUGUAAAGU
a: 49.8
